System: Venturia inaequalis
Assay: Venturia Test (Apple)/protective
Type: in vivo
Details: 240 h, read-out: Efficacy in %
What pest or weed control at 100 g/ha was measured for each of the following?
Answers are plain numbers, in %.

Consider the reported pest or weed control at 100 g/ha for these compounds:
CC1=C(C(=O)Nc2ccccc2-c2ccc(Cl)c(C(F)(F)F)c2)SCCO1	99
CC1=C(C(=O)Nc2ccccc2-c2ccc(Cl)c(F)c2)SCCO1	100
CC1=C(C(=O)Nc2ccccc2-c2ccc(F)c(F)c2)SCCO1	100
CC1=C(C(=O)Nc2ccccc2-c2ccc(Cl)c(Cl)c2)SCCO1	100

// below: pest or weed control at 100 g/ha requested for another compound
Lookup: API: value(readout= pest or weed control at 100 g/ha, system= Venturia inaequalis, query= `CC1=C(C(=O)Nc2ccccc2-c2ccc(Cl)cc2Cl)SCCO1` )
Found: 100
